Where do the numbers come from? From patent US20250136687A1.

TARGET_SYSTEM: T1, monkey CD3ε/δ-His (monkey, UniProt Q95LI5 22-117; Q95LI8 22-105)
T1 construct: Bought recombinant heterodimer with His tag
T1 sequence (Q95LI5 22-117, stated change not applied, form in doubt, chain 1 of 2): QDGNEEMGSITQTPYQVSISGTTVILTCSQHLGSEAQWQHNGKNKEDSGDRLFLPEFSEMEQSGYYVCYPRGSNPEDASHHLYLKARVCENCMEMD
T1 sequence (Q95LI8 22-105, stated change not applied, form in doubt, chain 2 of 2): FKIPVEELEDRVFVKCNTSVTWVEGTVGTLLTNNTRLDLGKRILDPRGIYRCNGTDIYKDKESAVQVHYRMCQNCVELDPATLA
EXPERIMENT_DESCRIPTION: ELISA, coated antigen
OBSERVATION_TYPE: max-OD450 (OD450)

[[record]]
binder = "5-7.13-H1a-L2 humanized antibody (antibody, human IgG1, kappa, V domains shown) VH: EVQLVQSGAEVKKPGASVKVSCKASGYTFTSYWVHWVRQAPGQRLEWMGNINPSDGVTNYNEKFKSRVTITVDKSASTAYMELSSLRSEDTAVYYCTRDAYGQYYFDNWGQGTTVTVSS VL: DIVMTQTPLSLPVTPGEPASISCKSSQSLLNSRTRKNYLAWYLQKPGQSPQLLIYWASVRDSGVPDRFSGSGSGTDFTLKISRVEAEDVGVYYCIQSYYLRTFGGGTKVEIKR"
observation_type = "max-OD450"
units_label = "OD450"
endpoint_result = 3.08

